molecular target: T1, recombinant CD3D&E protein (human CD3-his tag) (human, UniProt P04234 22-105; P07766 23-126, limits assumed); assay: SPR Biacore, Ab captured on Protein A
T1 construct: Analyte in Biacore; also called CD3D&E-His; CD3d&ε-His
T1 sequence (P04234 22-105 limits assumed, chain 1 of 2): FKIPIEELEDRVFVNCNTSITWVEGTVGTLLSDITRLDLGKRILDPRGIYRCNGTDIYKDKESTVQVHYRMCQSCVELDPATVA
T1 sequence (P07766 23-126 limits assumed, chain 2 of 2): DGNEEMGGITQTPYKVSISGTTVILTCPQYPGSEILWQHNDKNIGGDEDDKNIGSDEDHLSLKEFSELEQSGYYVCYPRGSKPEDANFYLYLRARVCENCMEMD
The entries below are paired with their reported koff.
Field format: number, assumed s⁻¹, no unit text.

binder	u	koff
153A6B1 chimeric mAb (antibody, V domains shown, Chimeric mAb of the hybridoma clone; also called 153A6B1C8) VH: QVQLKESGPGLVQPSQTLSLTCTVSGFSLTSYNIHWVRQPPGKGLEWMGRIRYNGDTSYNSALKSRLSISRDTSKNQVFLKMSSLQTDDTGTYYCTRGPYGGSREPLFDYWGQGVMVTVSS VL: DIKMTQSPSFLSAAVGDRVTINCKTSQNINKYLNWFQQKLGAAPKLLIYTTNNLQTGIPSRFSGSGSGTDFTLTISSLQPEDVATYFCLQHGSGYTFGAGTKLELK	s⁻¹	0.000694

Entry 192A7B9 chimeric mAb (antibody, V domains shown, Chimeric mAb) VH: QVQLKESGPGLVQPSQTLSLNCTVSGFSLTSYNVHWVRQPPGKGLEWMGRMRYNGDTSYNSALKSRLSISRDTSKNQVFLKMNSLQTDDTGTYYCTRGPRGGYYSALFDYWGQGVMVTVSS VL: DIQMTQSPSFLSASVGDRVTINCKASQNINRYLNWYQQKLGDAPKVLISIANSLQTGIPSRFSGSGSGTDFTLTISSLQPEDVATYFCLQHNSWYTFGAGTKLELK — recorded koff = 0.000442

Entry SP34 monoclonal antibody (antibody, human IgG1, lambda, N297A, V domains shown, also called SP34 (Biointron, B6762)) VH: EVQLVESGGGLVQPKGSLKLSCAASGFTFNTYAMNWVRQAPGKGLEWVARIRSKYNNYATYYADSVKDRFTISRDDSQSILYLQMNNLKTEDTAMYYCVRHGNFGNSYVSWFAYWGQGTLVTVSA VL: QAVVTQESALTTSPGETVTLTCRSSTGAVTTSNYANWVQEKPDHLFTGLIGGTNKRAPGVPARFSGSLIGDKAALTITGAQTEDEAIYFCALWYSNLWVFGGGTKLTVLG — recorded koff = 0.00292

Entry 155A9B1 chimeric mAb (antibody, V domains shown, Chimeric mAb) VH: QVQLKESGPGLVQPSQTLSLTCTVSGFSLTSYNVHWVRQPPGKGLEWMGRVRYNGDTSYNSALKSRLSISRDTSKNQAFLKMNSLQIDDTGTYYCTRGPYGGSSEPLFDYWGQGVMVTVSS VL: DIKMTQSPSFLSASVGDRVTINCKASQNINKYLNWFQQKLGEAPRLLIYTTNNLQTGIPSRFSGSGSGTDFTLTISSLQPEDVATYFCLQHNSGYTFGAGTKLELK — recorded koff = 0.00207
